Measurement target: Oxysterols receptor LXR-alpha (Homo sapiens, UniProt Q13133)
Sequence (Q13133 whole entry): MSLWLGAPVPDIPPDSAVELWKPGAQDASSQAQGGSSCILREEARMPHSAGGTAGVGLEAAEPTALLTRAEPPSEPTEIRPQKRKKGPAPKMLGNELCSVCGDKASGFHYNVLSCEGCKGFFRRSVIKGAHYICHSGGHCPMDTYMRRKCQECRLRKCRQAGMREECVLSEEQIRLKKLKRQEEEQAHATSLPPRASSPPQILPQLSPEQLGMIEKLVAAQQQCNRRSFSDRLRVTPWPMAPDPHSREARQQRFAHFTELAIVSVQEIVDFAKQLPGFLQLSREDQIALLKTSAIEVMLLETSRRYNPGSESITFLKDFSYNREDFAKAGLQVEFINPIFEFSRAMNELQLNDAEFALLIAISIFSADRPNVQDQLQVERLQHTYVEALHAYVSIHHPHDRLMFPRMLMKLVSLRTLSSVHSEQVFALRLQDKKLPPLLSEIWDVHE
pIC50: −log10 of the molar value.
Value kind: pIC50

Consider the following illustrative entries.
// fetch pIC50 given entry Cc1oc(-c2cccc(C(F)(F)F)c2)nc1CN(CC(F)(F)F)c1ccc(C(O)(C(F)(F)F)C(F)(F)F)cc1
7.89

// fetch pIC50 given entry CCN(c1ccc(C(O)(C(F)(F)F)C(F)(F)F)cc1)C(COCCO)c1ccccc1 (racemic)
4.92

// fetch pIC50 given entry CCN(Cc1cscn1)c1ccc(C(O)(C(F)(F)F)C(F)(F)F)cc1
6.22

// fetch pIC50 given entry CCN(c1ccc(C(O)(C(F)(F)F)C(F)(F)F)cc1)C(COCC(=O)O)c1ccccc1 (racemic)
4.21

a = CCN(c1ccc(C(O)(C(F)(F)F)C(F)(F)F)cc1)C(CC)(C(=O)OC)c1ccccc1 (racemic)
b = CCN(c1ccc(C(O)(C(F)(F)F)C(F)(F)F)cc1)C(COC)c1ccccc1 (racemic)
c = CCN(Cc1nc(-c2cccc(C(F)(F)F)c2)oc1C)c1ccc(C(O)(C(F)(F)F)C(F)(F)F)cc1
d = CCN(c1ccc(C(O)(C(F)(F)F)C(F)(F)F)cc1)C(C)(C(=O)N(C)C)c1ccccc1 (racemic)
Returns the items ordered by pIC50, from maximum to minimum. The response must list the labels following the requested ordering.
c, a, d, b
(c: 8.22, a: 7.30, d: 6.70, b: 6.40)

P = COC(=O)C1(c2ccccc2)CCCCN1c1ccc(C(O)(C(F)(F)F)C(F)(F)F)cc1 (racemic)
Q = CCN(Cc1cscn1)c1ccc(C(O)(C(F)(F)F)C(F)(F)F)cc1Cl
R = CCN(Cc1cccnc1)c1ccc(C(O)(C(F)(F)F)C(F)(F)F)cc1
S = CCN(CCc1ccccc1)c1ccc(C(O)(C(F)(F)F)C(F)(F)F)cc1Cl
T = OC(c1ccc(N(Cc2ccccc2)CC(F)(F)F)c(Cl)c1)(C(F)(F)F)C(F)(F)F
Hey, quick one: sort these by pIC50, low to high? The response must list the labels following the requested ordering.
R, P, Q, S, T
(R: 5.57, P: 7.22, Q: 7.70, S: 8.22, T: 9.00)

1 = CCN(c1ccc(C(O)(C(F)(F)F)C(F)(F)F)cc1Cl)C(COc1ccc(C(=O)OC)cc1)c1ccccc1 (racemic)
2 = CCN(Cc1ccncc1)c1ccc(C(O)(C(F)(F)F)C(F)(F)F)cc1
From the recorded data, which exceeds the other in pIC50: 1 or 2 ? Bench note: the answer is the label of the chosen record.
1
(1: 7.22, 2: 5.77)
